quantity: melting point

{"compound": "O=C(O)c1cn(-c2ccc(F)cc2)c2c(F)c(N3Cc4cccc(O)c4C3)c(F)cc2c1=O", "valueReported": "> 300 °C"}
{"compound": "COC(=O)c1ccccc1-c1cc(-c2ccc(C(F)(F)F)cc2)no1", "valueReported": "90.5 to 92 °C"}

Input "COc1cncnc1N1CCN(CCCc2c[nH]c3ccc(CNC(C)=O)cc23)CC1" . Output melting point: 169 to 174 °C

Value of melting point reported for the compound "CN(C)c1ccc(C=CC(=O)c2ccc(OCCO)cc2)cc1" is 127 to 128 °C

CCCC(NS(=O)(=O)c1ccc(Cl)cc1)C(=O)Nc1ccc(CC(=O)O)cc1 (racemic) yielded melting point of 202 to 204 °C

Item: COC(=O)c1ccc([C@H]2CCN(Cc3ccccc3)C[C@@H]2O)cc1 (racemic) | melting point: 103 to 104 °C

// field: melting point; key: "COC(=O)c1nc2cc(C)cc(Cl)c2c(O)c1C(=O)OC" ; value = 197 to 199 °C

For record "CC1(C)CN(C(=O)c2cc3c(C(=O)OC(C)(C)C)ncn3c3ccc(Cl)cc23)CC(C)(C)N1" the listed melting point is 241 to 242 °C

// melting point value for "Cc1nn(C)c(O)c1C(=O)c1ccc(Cl)cc1Cl" : 165 to 166 °C

---

melting point: recorded values

{"molecule": "CCC(C)(CC)C1=NN=C(NC(=O)c2c(OC)cccc2OC)SC1", "quantity": "melting point", "valueReported": "134 to 140 °C"}
{"molecule": "CC(=O)c1c(CO[N+](=O)[O-])n(C(C)=O)c(=O)n1C(C)=O", "quantity": "melting point", "valueReported": "135 to 136 °C"}
{"molecule": "O=C1CCC(O)(c2ccc(F)cc2)CC1", "quantity": "melting point", "valueReported": "108 to 114 °C"}

Note to self: melting point recorded for "O=c1cc(Cc2c[nH]c3ccccc23)[nH]n1C1CCCCC1" was 192 to 194 °C

Form field melting point, entry CCOC(=O)N1CCOC(CC23CC(c4ccccc42)c2ccccc23)C1 (stereo unspecified) : 143 to 144 °C

The molecule listed as C[C@H]1[C@H](N)CN1c1cc2c(cc1F)c(=O)c(C(=O)O)cn2C(C)(C)C (relative stereo) has a reported melting point of 225 to 227 °C

---

# maps each entry to its melting point

Past entries and their recorded results:
{"compound": "COc1cccc(C2C(C(=O)O)CC(=O)N2c2ccccc2)c1 (stereo unspecified)", "valueReported": "145 to 149 °C"}
{"compound": "COc1ccc(C(=O)N2CCNC2=Nc2c(Cl)cccc2Cl)cc1OC", "valueReported": "201 to 204 °C"}
{"compound": "CCCn1c(=O)c2c(C(=O)OCCN(C)C)ncn2c2ccccc21", "valueReported": "115 to 118 °C"}
{"compound": "Cc1cnc2c(c1)C(=O)c1nccc(Br)c1C2=O", "valueReported": "> 200 °C"}
{"compound": "CCC1(CC)C(=O)N(c2ccccc2)CC(C)(C)N1OC(C)c1ccccc1 (stereo unspecified)", "valueReported": "78 to 81 °C"}

For reference, reported melting point for CC1CCc2ccc(OCC(O)CNC(C)(C)C)cc2O1 (stereo unspecified) stands at 92 to 94 °C
